tested on: LOX IMVI melanoma; test: NCI-60 one-dose screen, 48 h; conditions: 10 µM unless noted
Compounds without any hit were thinned out: in the full panel of roughly 83,000, 20% have a hit. Calls of active or inactive are those of the source. How the source made its calls: active means growth percent below 10; inactive means the rest.
Outcomes: Yes for active, No for inactive

[
  {
    "MOLECULE": "O=C1CSC(c2ccccc2)N1c1ccccc1 (centres undefined)",
    "CLASSIFICATION": "No"
  },
  {
    "MOLECULE": "CN(CCCCCCCCNc1ccnc2ccccc12)Cc1ccc(-c2ccc(-c3ccc(C#N)cc3)s2)cc1",
    "CLASSIFICATION": "Yes"
  },
  {
    "MOLECULE": "CC(C)(C)c1ccc(C(=O)Nc2sc3c(c2C(N)=O)CCC(=O)C3)cc1",
    "CLASSIFICATION": "Yes"
  },
  {
    "MOLECULE": "C#CC[C@H](N)C(=O)O",
    "CLASSIFICATION": "No"
  }
]

----------
Tested on: BT-549 breast
Assay: NCI-60 one-dose screen, 48 h
Conditions: 10 µM unless noted
Description: Growth inhibition of the BT-549 human tumor cell line is measured as a screen for anti-cancer activity. Cells are grown in 96 well plates and exposed to the test compound for 48 hours. Compounds are tested at a single concentration, which is 10^-5 M for most compounds. The reported endpoint is percent growth (GI% or GIPRCNT), where numbers from 0 - 100% represent growth inhibition, and numbers from -100% - 0 represent cell death. For example, a value of 40 represents 60% growth inhibition. […]
The panel holds about 83,000 compounds, 20% with a hit somewhere; the sample as a whole holds those more often. Calls of active or inactive are those of the source. The calls were made as follows: active = growth percent below 10; inactive = the rest.
Outcomes: T (active), F (inactive)

[
  {
    "MOLECULE": "C=C(C)C1CCC(=C)C2CCC3(C)OC12/C=C(/COC(C)=O)CCC3O (stereo unspecified)",
    "SYSTEM UNDER TEST": "BT-549 breast",
    "CLASSIFICATION": "F"
  },
  {
    "MOLECULE": "O=S(=O)(Nc1ccsc1-c1nc(-c2ccccc2)no1)c1cc(Cl)cc(Cl)c1",
    "SYSTEM UNDER TEST": "BT-549 breast",
    "CLASSIFICATION": "F"
  },
  {
    "MOLECULE": "O=C(Nc1ccccc1)c1sc(-c2cccc(C(F)(F)F)c2)cc1O",
    "SYSTEM UNDER TEST": "BT-549 breast",
    "CLASSIFICATION": "F"
  },
  {
    "MOLECULE": "CCn1c(Sc2nnc(NC(C)=O)s2)nc2c1c(=O)n(C)c(=O)n2C",
    "SYSTEM UNDER TEST": "BT-549 breast",
    "CLASSIFICATION": "F"
  },
  {
    "MOLECULE": "CC(=[N-])N1CCC[C@@H](Nc2c3ccccc3nc3ccccc23)C1.[Cl][Pt].[NH-]CCC[NH-]",
    "SYSTEM UNDER TEST": "BT-549 breast",
    "CLASSIFICATION": "F"
  },
  {
    "MOLECULE": "CCCCNCC(=O)Nc1ccc(C(=O)OCC)cc1",
    "SYSTEM UNDER TEST": "BT-549 breast",
    "CLASSIFICATION": "F"
  },
  {
    "MOLECULE": "CN(C)CCCCNc1ccc(NCCCCN(C)C)c2c1C(=O)c1c(O)ccc(O)c1C2=O",
    "SYSTEM UNDER TEST": "BT-549 breast",
    "CLASSIFICATION": "F"
  },
  {
    "MOLECULE": "COc1ccc(C2=NC(=O)NC2c2ccc(OC)cc2)cc1 (stereo unspecified)",
    "SYSTEM UNDER TEST": "BT-549 breast",
    "CLASSIFICATION": "F"
  },
  {
    "MOLECULE": "N#Cc1cnn2c(-c3ccc(Cl)cc3)nc(NC3CC3)nc12",
    "SYSTEM UNDER TEST": "BT-549 breast",
    "CLASSIFICATION": "F"
  },
  {
    "MOLECULE": "COc1cc(-c2ccc(-c3ccc(C(=N)N)nc3)s2)cc(OC)c1OC",
    "SYSTEM UNDER TEST": "BT-549 breast",
    "CLASSIFICATION": "F"
  },
  {
    "MOLECULE": "CC1(C)N=C(N)N=C(N)N1c1cccc(CN)c1",
    "SYSTEM UNDER TEST": "BT-549 breast",
    "CLASSIFICATION": "F"
  },
  {
    "MOLECULE": "Cl.Fc1c[c-]c(-c2ccccn2)c(F)c1.[Pt].c1ccc([PH+](C[PH+](c2ccccc2)c2ccccc2)c2ccccc2)cc1",
    "SYSTEM UNDER TEST": "BT-549 breast",
    "CLASSIFICATION": "T"
  },
  {
    "MOLECULE": "CC(C)c1ccc(NC(=O)Cc2ccc(Nc3ncnc4cc(-c5cnn(CCN(C)C)c5)ccc34)cc2)cc1",
    "SYSTEM UNDER TEST": "BT-549 breast",
    "CLASSIFICATION": "T"
  },
  {
    "MOLECULE": "Cc1nc(Nc2ccc(N)cc2)c2ccccc2n1",
    "SYSTEM UNDER TEST": "BT-549 breast",
    "CLASSIFICATION": "F"
  },
  {
    "MOLECULE": "O=C1CC(c2ccc3c(c2)OCO3)Nc2cc3c(cc21)OCO3 (stereo unspecified)",
    "SYSTEM UNDER TEST": "BT-549 breast",
    "CLASSIFICATION": "F"
  },
  {
    "MOLECULE": "CCN(CC)CCOC(=O)N1c2ccccc2Sc2ccccc21",
    "SYSTEM UNDER TEST": "BT-549 breast",
    "CLASSIFICATION": "F"
  }
]

----------
system: MDA-MB-231 breast; assay: NCI-60 one-dose screen, 48 h; conditions: 10 µM unless noted
The panel holds about 83,000 compounds, 20% with a hit somewhere; the sample as a whole holds those more often. The source made the active and inactive calls. Rule for the calls: active = growth percent below 10; inactive = the rest.
Outcomes: True = active, False = inactive

[
  {
    "COMPOUND": "Cc1c2c(cn1Cc1ccccc1)CCc1cn(C)nc1-2",
    "CLASSIFICATION": "False"
  },
  {
    "COMPOUND": "O=C(Nc1ccccc1)c1sc(-c2cccc(C(F)(F)F)c2)cc1O",
    "CLASSIFICATION": "False"
  },
  {
    "COMPOUND": "C=C1C(=O)O[C@H]2[C@H]1CC/C(Cn1cc(CNCCc3c[nH]c4ccccc34)nn1)=C\\CC[C@@]1(C)O[C@@H]21",
    "CLASSIFICATION": "False"
  },
  {
    "COMPOUND": "NC(=O)c1c(NC(=O)c2ccccn2)sc2c1CCC(=O)C2",
    "CLASSIFICATION": "True"
  },
  {
    "COMPOUND": "CC1=CC(=O)C(C(C)C)=CC1=Nc1cc(Br)c(O)c(Br)c1",
    "CLASSIFICATION": "True"
  },
  {
    "COMPOUND": "CSc1nc2sc3cc(Cl)ccc3n2c(=N)c1C#N",
    "CLASSIFICATION": "False"
  },
  {
    "COMPOUND": "COc1ccc(-c2c(N)n[nH]c2-c2ccccc2O)cc1OC",
    "CLASSIFICATION": "False"
  },
  {
    "COMPOUND": "Clc1ccc(-c2cn(-c3ccccc3)c(-c3ccccc3)n2)cc1",
    "CLASSIFICATION": "False"
  },
  {
    "COMPOUND": "N[C@@H]1CCC[C@H]1NCCCCN1C(=O)c2cccc3cccc(c23)C1=O",
    "CLASSIFICATION": "False"
  },
  {
    "COMPOUND": "N#Cc1c(NC(=O)c2ccc(Br)cc2)sc2c1CCCC2",
    "CLASSIFICATION": "False"
  },
  {
    "COMPOUND": "NC(=O)c1c(NC(=O)c2ccc(C(F)(F)F)cc2Cl)sc2c1CCC(=O)C2",
    "CLASSIFICATION": "True"
  },
  {
    "COMPOUND": "COc1cc2nc(Nc3ccc(F)cc3)nc(N)c2cc1OC",
    "CLASSIFICATION": "False"
  },
  {
    "COMPOUND": "C[C@@H]1C(=O)N(C[C@@H](Cc2ccccc2)NC(=O)OCc2ccccc2)[C@]1(Cc1ccccc1)C(=O)OCc1ccccc1",
    "CLASSIFICATION": "False"
  },
  {
    "COMPOUND": "COc1ccc(-c2nc3sc4c(c3c(=O)[nH]2)CCCC4)c2ccccc12",
    "CLASSIFICATION": "False"
  },
  {
    "COMPOUND": "CCN(CC)c1ccc(Nc2ccc(CC(=O)c3ccccc3)cc2)cc1",
    "CLASSIFICATION": "False"
  },
  {
    "COMPOUND": "CSc1ccc(Cl)c(C(=O)Nc2sccc2C(N)=O)c1",
    "CLASSIFICATION": "False"
  },
  {
    "COMPOUND": "CC(=O)c1sc(-c2ccccc2)cc1N",
    "CLASSIFICATION": "False"
  },
  {
    "COMPOUND": "C=C(CNCCc1ccc(O)cc1)[C@@H]1CC[C@]2(COC3CCCCO3)CC[C@]3(C)[C@H](CC[C@@H]4[C@@]5(C)CCC(NCCO)C(C)(C)[C@@H]5CC[C@]43C)[C@@H]12 (stereo partly drawn)",
    "CLASSIFICATION": "True"
  },
  {
    "COMPOUND": "CCCCCCNc1cc(C)nc2ccc(OC)cc12",
    "CLASSIFICATION": "False"
  },
  {
    "COMPOUND": "CC(C)N(CCOC(=O)Nc1ccccc1Cl)C(C)C",
    "CLASSIFICATION": "False"
  },
  {
    "COMPOUND": "CCCCNC(=O)NS(=O)(=O)c1ccc(N2N=C(c3ccc(C)cc3C)CC2c2ccc(N(C)C)cc2)cc1 (stereo not drawn)",
    "CLASSIFICATION": "False"
  },
  {
    "COMPOUND": "Cc1c(C(=O)O)nnn1-c1nccs1",
    "CLASSIFICATION": "False"
  },
  {
    "COMPOUND": "Clc1ccc(/C=C/c2nc(Nc3ccc(Cl)cc3)c3ccccc3n2)cc1",
    "CLASSIFICATION": "False"
  }
]

Reference source for all entries: PubChem BioAssay (NCI)
